assay: in vitro; settings: mouse, microsomes, 5 min, 1 μM, pH 7.4
Structures can show the parent of a compound that is named as a salt.
As shown below, each of these compounds has a reported Percentage turnover in MLM (percent remaining), 5 min value.
Form entry: value (%) — number only.

Answered examples (3):
# compound, measured
measured = [
    ("[2H]C([2H])([2H])Oc1ccc(Nc2nc(-c3c(C)nc4ccccn34)cs2)cc1 [Compound 15, hydrochloride]", 100),
    ("Cc1nc2ccccn2c1-c1csc(Nc2ccc3c(c2)OC(F)(F)O3)n1 [Compound 16, hydrochloride]", 83),
    ("COc1c(F)cc(Nc2nc(-c3c(C)nc4ccccn34)cs2)cc1F [Compound 14, hydrochloride]", 88),
]

Next compound, please.
q: Look at this compound and give its reported Percentage turnover in MLM (percent remaining), 5 min. [2H]C1([2H])Oc2ccc(Nc3nc(-c4c(C)nc5ccccn45)cs3)cc2O1 [Compound 17, hydrochloride]
a: 91
